Recorded measurements of EC50, one per entry
- system name: T1, recombinant human CD19 (labeled) (human, UniProt P15391 20-291, limits assumed)
- T1 construct: Fluorescently labeled antigen titrated on yeast; The sorting steps used CD19-Fc/Anti-Hu-Fc, so the labeled antigen may be the Fc fusion; also called labeled CD19; recombinant human CD19 protein
- T1 sequence (looked up): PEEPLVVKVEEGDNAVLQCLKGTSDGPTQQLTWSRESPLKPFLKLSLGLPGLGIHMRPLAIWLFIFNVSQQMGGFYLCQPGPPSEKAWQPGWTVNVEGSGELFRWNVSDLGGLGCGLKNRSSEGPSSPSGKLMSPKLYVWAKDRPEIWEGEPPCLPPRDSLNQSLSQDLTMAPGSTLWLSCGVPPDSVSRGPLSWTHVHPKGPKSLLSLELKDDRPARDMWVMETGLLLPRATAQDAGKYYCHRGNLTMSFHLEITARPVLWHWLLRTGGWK
- run description: flow cytometry of yeast-displayed scFv with decreasing amounts of labeled CD19
property name: EC50

• human anti-CD19 ScFv binder M19217-2 (scFv) EVQLVQSGAEVKKPGASVKVSCKASGYTFTSYYMHWVRQAPGQGFEWMGLINPSGSSTSYAQKFQGRVTMTRDTSTSTVYMELSNLRSEDTAVYYCARSDRGITATDAFDIWGQGTMVTVSSGGGGSGGGGSGGGGSQSVLTQPPSVPVAPGQTAKIICGGSDIGNKNVHWYQQKPGQAPVLVVYDDYDRPSGIPERFSGSNSGDAATLTISTVEVGDEADYFCQVWDGSGDPYWVFGGGTQLTVLG = < 0.01 µg/mL
• human anti-CD19 ScFv binder M19217 (founder clone) (scFv) EVQLVQSGAEVKKPGASVKVSCKASGYTFTSYYMHWVRQAPGQGLEWMGIINPSGGSTSYAQKFQGRVTMTRDTSTSTVYMELSSLRSEDTAVYYCARSDRGITATDAFDIWGQGTMVTVSSGGGGSGGGGSGGGGSQSVLTQPPSVSVAPGQTAKITCGGSDIGNKNVHWYQQKPGQAPVLVVYDDYDRPSGIPERFSGSNSGDAATLTISTVEVGDEADYFCQVWDSSGDPYWVFGGGTQLTVLG = 0.5 µg/mL
• human anti-CD19 ScFv binder M19217-40 (scFv) EVQLVQSGAEVKRPGASVKVSCKASGYTFTSYYMHWVRQAPGQGLVWMGLINPSGGSTSYAQKFQGRVTMTRDTSTSTVYMELSSLRSEDTAVYYCARSDRGITATDAFDIWGQGTMVTVSSGGGGSGGGGSGGGGSQSVLTQPPSVSVAPGQTAKTTCGGSDIGNKNVHWYQQKPGQAPVLVVYDDYDRPSGIPERFSGSNSGDAATLTISTVEVGDEADYVCQVWDGSGDPYWVFGGGTQLTVLG = < 0.01 µg/mL
